Where these numbers come from: ChEMBL document CHEMBL5390272

target_under_test: D(1A) dopamine receptor (Homo sapiens)
Sequence (P21728 whole entry): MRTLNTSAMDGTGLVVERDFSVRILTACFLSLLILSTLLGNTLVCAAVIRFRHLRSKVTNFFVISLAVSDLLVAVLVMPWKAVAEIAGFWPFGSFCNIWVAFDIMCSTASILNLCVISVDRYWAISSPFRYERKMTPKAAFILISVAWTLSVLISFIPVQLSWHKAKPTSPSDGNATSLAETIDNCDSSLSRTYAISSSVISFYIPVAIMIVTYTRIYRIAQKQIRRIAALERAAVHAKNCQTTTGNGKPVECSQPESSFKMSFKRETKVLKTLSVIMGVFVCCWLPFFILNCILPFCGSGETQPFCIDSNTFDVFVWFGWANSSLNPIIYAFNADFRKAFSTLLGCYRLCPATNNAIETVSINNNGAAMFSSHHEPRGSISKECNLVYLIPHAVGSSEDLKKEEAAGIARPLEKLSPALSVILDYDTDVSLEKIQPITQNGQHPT
measurement_notes: Inhibition of human D1 receptor expressed in HEK293 cells assessed as cyclic AMP accumulation incubated for 1 hr in presence of dopamine by HTR-FRET assay
pIC50: −log10 of the molar value.
parameter: pIC50

Exercise: Value lookup for pIC50; key = CC(C)OC(=O)[C@H](Cc1ccccc1)NP(=O)(COCCn1cc(-c2cccc(-c3noc(=O)[nH]3)c2)c2c(N)ncnc21)N[C@@H](Cc1ccccc1)C(=O)OC(C)C
Key: < 5.00

---

I'd appreciate it if you could supply pIC50 values for the items below.
measurement_notes: Inhibition of Bordetella pertussis Adenylate cyclase toxin in mouse J774.A1 cells preincubated for 5 hrs followed by ACT addition and measured after 30 mins by CatchPointcAMP immunoassay method
Format: cell-based
Units for pIC50: none; it is -log10 of a concentration expressed in mol/L.

Exercise: Value lookup for pIC50; key = CC(C)OC(=O)[C@H](Cc1ccccc1)NP(=O)(COCCn1cc(-c2cccc(NS(C)(=O)=O)c2)c2c(N)ncnc21)N[C@@H](Cc1ccccc1)C(=O)OC(C)C
Key: 5.53

Exercise: Then what about the compound CC(C)OC(=O)[C@H](Cc1ccccc1)NP(=O)(COCCn1cc(-c2cccc(C#N)c2)c2c(N)ncnc21)N[C@@H](Cc1ccccc1)C(=O)OC(C)C ?
Key: 5.85

Exercise: Then what about the compound CC(C)OC(=O)[C@H](Cc1ccccc1)NP(=O)(COCCn1cc(-c2ccccn2)c2c(N)ncnc21)N[C@@H](Cc1ccccc1)C(=O)OC(C)C ?
Key: 5.97

Exercise: Then what about the compound CC(C)OC(=O)[C@H](Cc1ccccc1)NP(=O)(COCCn1cc(-c2ccc([N+](=O)[O-])cc2)c2c(N)ncnc21)N[C@@H](Cc1ccccc1)C(=O)OC(C)C ?
Key: 5.90

Exercise: Then what about the compound CC(C)OC(=O)[C@H](Cc1ccccc1)NP(=O)(COCCn1cc(-c2cccc(C(N)=O)c2)c2c(N)ncnc21)N[C@@H](Cc1ccccc1)C(=O)OC(C)C ?
Key: 5.60

Exercise: Then what about the compound COc1cccc(-c2cn(CCOCP(=O)(N[C@@H](Cc3ccccc3)C(=O)OC(C)C)N[C@@H](Cc3ccccc3)C(=O)OC(C)C)c3ncnc(N)c23)c1 ?
Key: 5.32

Exercise: Then what about the compound COc1ccc(-c2cn(CCOCP(=O)(N[C@@H](Cc3ccccc3)C(=O)OC(C)C)N[C@@H](Cc3ccccc3)C(=O)OC(C)C)c3ncnc(N)c23)cc1 ?
Key: 5.83
